- TEST_SYSTEM: human MC3R (human, UniProt P41968 1-323)
- Sequence (P41968 whole entry): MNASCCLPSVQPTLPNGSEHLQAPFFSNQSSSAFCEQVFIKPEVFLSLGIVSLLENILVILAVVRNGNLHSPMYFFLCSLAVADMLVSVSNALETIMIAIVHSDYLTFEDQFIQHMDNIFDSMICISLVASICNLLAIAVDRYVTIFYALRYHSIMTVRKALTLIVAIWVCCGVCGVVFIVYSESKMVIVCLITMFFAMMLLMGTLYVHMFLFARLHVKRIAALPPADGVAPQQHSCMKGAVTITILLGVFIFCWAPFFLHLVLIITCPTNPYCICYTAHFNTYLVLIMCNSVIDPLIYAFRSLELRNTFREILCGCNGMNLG
- TEST_SUMMARY: cell-based or functional assay
Positions of bridges follow the written chain, without caps; N, C: chain ends. Non-standard residues stand in square brackets, D forms with d. 1Nal = N[C@@H](Cc1cccc2ccccc12)C(=O)O; 2Pal = N[C@@H](Cc1ccccn1)C(=O)O; Cit = NC(=O)NCCC[C@H](N)C(=O)O; Nle = CCCC[C@H](N)C(=O)O
Hi there, I'd appreciate the recorded cAMP EC50 for every entry that follows.
One number for each entry, in µM.

I'm hoping you can list cAMP EC50 for every binder here, please.
1. Ac-R[Nle]C[Cit][dF]RWC-NH2 (disulfide 3-8; SMILES CCCC[C@H](NC(=O)[C@H](CCCNC(=N)N)NC(C)=O)C(=O)N[C@H]1CSSC[C@@H](C(N)=O)NC(=O)[C@H](Cc2c[nH]c3ccccc23)NC(=O)[C@H](CCCNC(=N)N)NC(=O)[C@@H](Cc2ccccc2)NC(=O)[C@H](CCCNC(N)=O)NC1=O) [CTX-1607]
2. Ac-R[Nle]CH[dF]RWC-NH2 (disulfide 3-8; SMILES CCCC[C@H](NC(=O)[C@H](CCCNC(=N)N)NC(C)=O)C(=O)N[C@H]1CSSC[C@@H](C(N)=O)NC(=O)[C@H](Cc2c[nH]c3ccccc23)NC(=O)[C@H](CCCNC(=N)N)NC(=O)[C@@H](Cc2ccccc2)NC(=O)[C@H](Cc2c[nH]cn2)NC1=O) [CTX-1227]

Response:
1. 0.014
2. 0.0028

I'm hoping you can list cAMP EC50 for every binder here, please.
1. {CH2CO}-[dA]R[dF]RFC-NH2 (thioether N-6; SMILES C[C@H]1NC(=O)CSC[C@@H](C(N)=O)NC(=O)[C@H](Cc2ccccc2)NC(=O)[C@H](CCCNC(=N)N)NC(=O)[C@@H](Cc2ccccc2)NC(=O)[C@H](CCCNC(=N)N)NC1=O) [CTX-1657]
2. Ac-R[Nle]C[2Pal][dF]RWC-NH2 (disulfide 3-8; SMILES CCCC[C@H](NC(=O)[C@H](CCCNC(=N)N)NC(C)=O)C(=O)N[C@H]1CSSC[C@@H](C(N)=O)NC(=O)[C@H](Cc2c[nH]c3ccccc23)NC(=O)[C@H](CCCNC(=N)N)NC(=O)[C@@H](Cc2ccccc2)NC(=O)[C@H](Cc2ccccn2)NC1=O) [CTX-1619]
3. {CH2CO}-GH[dF]RWC-NH2 (thioether N-6; SMILES N=C(N)NCCC[C@@H]1NC(=O)[C@@H](Cc2ccccc2)NC(=O)[C@H](Cc2c[nH]cn2)NC(=O)CNC(=O)CSC[C@@H](C(N)=O)NC(=O)[C@H](Cc2c[nH]c3ccccc23)NC1=O) [CTX-1644]
4. Ac-R[Nle]CH[1Nal]RWC-NH2 (disulfide 3-8; SMILES CCCC[C@H](NC(=O)[C@H](CCCNC(=N)N)NC(C)=O)C(=O)N[C@H]1CSSC[C@@H](C(N)=O)NC(=O)[C@H](Cc2c[nH]c3ccccc23)NC(=O)[C@H](CCCNC(=N)N)NC(=O)[C@H](Cc2cccc3ccccc23)NC(=O)[C@H](Cc2c[nH]cn2)NC1=O) [CTX-1610]

Response:
8.81
0.033
0.12
0.163
